Every entry's value here was drawn from the Human Domainome abundance scans (Beltran et al. 2025).

B1: Proto-oncogene vav, residues 782 to 842; numbered along this chain, P15498 (parent)
chain: KYFGTAKARYDFCARDRSELSLKEGDIIKILNKKGQQGWWRGEIYGRVGWFPANYVEEDYS

Variants of: B1
assayProtocol: abundance fitness (aPCA) (normalised: wild type 0, dead -1); higher = more abundant; growth selection in yeast, the domain comes from the species named
testContext: Homo sapiens
Mark N for abundance fitness values under -0.4, and Y for everything at or above.

Textbook exercise: given the entry "E24K" , state whether its abundance fitness is greater than or equal to -0.4.
Y

Param item: "Q37P"
Y

Param item: "W50E"
N

Param item: "D11Y"
N

Param item: "G46V"
N

Param item: "E57H"
N

Param item: "D59E"
Y

Param item: "A8C"
N

Param item: "D59L"
Y

Param item: "A8G"
N

Param item: "R17G"
Y

Param item: "F12T"
N

Param item: "G42V"
N

Param item: "A14E"
N

Param item: "T5V"
Y

Param item: "D26N"
N

Param item: "R47L"
N

Param item: "K33W"
N

Param item: "K1P"
N

Param item: "S61P"
Y

Param item: "C13E"
Y

Param item: "Y10D"
Y

Param item: "Q36G"
Y

Param item: "E43S"
Y

Param item: "G4Y"
Y

Param item: "G49M"
N

Param item: "I44Y"
N

Param item: "Q36M"
Y
